- Tested on: Bacillus subtilis
- test-details: cleaved RNA product abundance (RNA/gDNA barcode ratio) relative to median wild-type variant (ratio to wild type); higher = more accumulation of the downstream cleavage product
- conditions: experiment (reporter, strain, medium): exp 2b: truncated aprE reporter, strain BJT200; cleavage site: cggR-gapA (positions -7 to +36 mutated)
List of cleaved RNA product abundance values.

ACAGACGAAGGAGCCGCAAAGAAGTTATTAAGGGAAGAATAATCCCTCAATATAAATATCTCTCACTTATTTAAA :: 0.485
ACAGACGAAGGAGCCGCAAAGAAGTTATTAAGTGATGAATAATCCGTCAATATAAATATCTCTCACTTATTTAAA :: 0.103
ACAGACGAAGGAGCCGCAAAGAAGATATAAAGGGATGAATAATCCCTCAATATAAATATCTCTCACTTATTTAAA :: 0.272

Indicate its recorded cleaved RNA product abundance; the sequence in question is ACAGACGAAGGAGCCGCAAAGAAGTTAGTAAGGGATGAATAATCCCTCAATATAAATGTCTCTCACTTATTTAAA
0.187

###

List of cleaved RNA product abundance values.
- Tested on: Bacillus subtilis
- test-details: cleaved RNA product abundance (RNA/gDNA barcode ratio) relative to median wild-type variant (ratio to wild type); higher = more accumulation of the downstream cleavage product
- conditions: experiment (reporter, strain, medium): exp 6: tetM reporter, strain 168; cleavage site: cggR-gapA (positions -7 to +36 mutated)
Please give only the number in your answer, with no unit.

ACAGACGAAGGAGCCTCAAAGAAGTTATTAAGGCATGAATAATCCCTCAATATAAATATCTCTCACTTATTTAAA :: 0.157
ACAGACGAAGGAGCCGCAATGAAGTTATTAAGGGATGAATAATCCCTCAATATAAATATCTCTCACTTATTTAAA :: 0.968
ACAGACGAAGGAGCCGCAAATAAGTTATTAAGGGATGAATAATCCCTCAATATAAATATCTCTCACTTATTTAAA :: 1.07

Indicate its recorded cleaved RNA product abundance; the sequence in question is ACAGACGAAGGAGCCGCAAAGAAGTTATTAAGGAATGAATAATCCCTCAATATAAATATCTCTCACTTATTTAAA
0.126

Indicate its recorded cleaved RNA product abundance; the sequence in question is ACAGACGAAGGAGCCGCAAAGAAGTTATTAAGGGATGAATAATCCCGCAATATAAATATCTCTCACTTATTTAAA
0.252

Indicate its recorded cleaved RNA product abundance; the sequence in question is ACAGACGAAGGAGCCGCAAAGAAGTTATTAAGGGATGAATAATCCCTCAATATAATTATCTCTCACTTATTTAAA
0.338

###

- Tested on: Bacillus subtilis
- test-details: cleaved RNA product abundance (RNA/gDNA barcode ratio) relative to median wild-type variant (ratio to wild type); higher = more accumulation of the downstream cleavage product
- conditions: experiment (reporter, strain, medium): exp 2b: truncated aprE reporter, strain BJT200; cleavage site: cggR-gapA (positions -7 to +36 mutated)
List of cleaved RNA product abundance values.
Please give only the number in your answer, with no unit.

ACAGACGAAGGAGCCGCAAAGAAGTTATTAAGGGATGAAAAATCCCTCAATATAAATGTCTCTCACTTATTTAAA :: 0.304
ACAGACGAAGGAGCCGCAAAGAAGTTATTAAGGAATGAATAATTCCTCAATATAAATATCTCTCACTTATTTAAA :: 0.756

Now turn to the next sequence.
Enter cleaved RNA product abundance (test system Bacillus subtilis) for ACAGACGAAGGAGCCGCAAAGAAGTTATTAAGGGATGAATAATCACACAATATAAATATCTCTCACTTATTTAAA
0.114
